# target.system: human alpha-7 nAChR (Homo sapiens)
# Construct: expressed in transfected cells; host or cells: Xenopus laevis oocytes (cRNA injection)
# Sequence (P36544 23-502): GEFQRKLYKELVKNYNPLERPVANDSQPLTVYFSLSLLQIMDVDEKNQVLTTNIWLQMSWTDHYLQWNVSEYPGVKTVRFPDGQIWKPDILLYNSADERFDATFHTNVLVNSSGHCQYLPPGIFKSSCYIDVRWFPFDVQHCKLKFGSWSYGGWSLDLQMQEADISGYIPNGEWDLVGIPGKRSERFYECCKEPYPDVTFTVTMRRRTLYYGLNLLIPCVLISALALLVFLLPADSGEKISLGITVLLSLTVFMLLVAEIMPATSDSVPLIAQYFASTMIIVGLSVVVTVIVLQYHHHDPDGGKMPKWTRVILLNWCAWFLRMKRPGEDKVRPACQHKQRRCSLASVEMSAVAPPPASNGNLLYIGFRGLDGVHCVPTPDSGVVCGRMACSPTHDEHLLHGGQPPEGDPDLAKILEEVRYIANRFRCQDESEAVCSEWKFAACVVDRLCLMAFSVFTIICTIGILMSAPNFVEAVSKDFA
# procedure.details: Two-electrode voltage clamp of alpha-7 nAChR expressed in Xenopus oocytes (net charge)
# Type: cell-based
# test.conditions: compound alone acting as an allosteric agonist; area under the curve of current vs. time
measured.attribute: Charge Alone

NS(=O)(=O)c1ccc2c(c1)[C@H]1CCC[C@H]1[C@@H](c1ccc(Br)cc1)N2 (stereo in doubt) :: 23
NS(=O)(=O)c1ccc2c(c1)[C@H]1C=CC[C@H]1[C@@H](c1cc(Br)cs1)N2 (stereo in doubt) :: 0
NS(=O)(=O)c1ccc([C@H]2Nc3ccc(Br)cc3[C@H]3C=CC[C@H]32)cc1 (stereo in doubt) :: 0

P: [N-]=[N+]=Nc1ccc([C@H]2Nc3ccc(S(N)(=O)=O)cc3[C@H]3C=CC[C@H]32)cc1 (stereo in doubt) [Compound 25]
Q: NS(=O)(=O)c1ccc2c(c1)[C@H]1C=CC[C@H]1[C@@H](c1cc3ccccc3s1)N2 (stereo in doubt)
R: NS(=O)(=O)c1ccc2c(c1)[C@H]1C=CC[C@H]1[C@@H](c1ccc(OCc3ccccc3)cc1)N2
S: NS(=O)(=O)c1ccc2c(c1)[C@H]1C=CC[C@H]1[C@@H](c1ccc(NC(=O)OC3C4CC5CC(C4)CC3C5)cc1)N2 (stereo in doubt)
Task field, ranking: reported Charge Alone, descending order. Arrange the labels as the request states and list them.
P, R, S, Q
(P: 61, R: 20, S: 5, Q: 3)
